Overview of reported TGI across a group of compounds:
System: PC-3 prostate
Assay: NCI tumour cell line growth inhibition, 48 h

1) N#Cc1nc(-c2cccc(Br)c2)cc(-c2ccc(Nc3nc(N4CCCCC4)nc(N4CCCCC4)n3)cc2)c1N: 7.11 µM
2) Nc1nc(-n2cccn2)nc(-n2cccn2)c1Br: > 100 µM
3) COc1ccc(NC=O)c(C(O)CCNC(C)=O)c1 (stereo unspecified): > 100 µM
4) Cc1c(C(=O)/C=C/c2ccc(O)cc2)nnn1-c1ccnc2c(C(F)(F)F)cccc12: > 100 µM
5) O=C(O)C(/C=C/c1ccco1)=N\Nc1nc(-c2ccc(Cl)cc2)cs1: > 50 µM

Quick one: TGI of CCOc1ccc(C2c3[nH]c4ccccc4c3CCN2C(=O)c2cccs2)cc1 (stereo unspecified) ?
> 100 µM

Quick one: TGI of C[N+](C)(C)CC1Cc2ccccc2C1=O (stereo unspecified) ?
> 10 µM

---

Tested on: U251 CNS
Experiment: NCI tumour cell line growth inhibition, 48 h
PROPERTY LABEL: TGI (µM)
Report the value in µM with no unit label.

1. CC1CCC2(OC1)OC1CC3C4CC=C5CC(OC6OC(CO)C(OC7OC(C)C(OC8OC(C)C(O)C(O)C8O)C(O)C7O)C(O)C6OC6OC(C)C(O)C(O)C6O)CCC5(C)C4CCC3(C)C1C2C (centres undefined): 1.96

Quick one: TGI of CCCCCCCCCCCCCCCCC(C(=O)O)C(O)(CC(=O)O)C(=O)O (centres undefined) ?
33.1

---

Tested on: A498 renal
Experiment: NCI tumour cell line growth inhibition, 48 h; in the data active = GI50 below about 0.43 µM; inactive = the rest
The reply should name one outcome from 1 for active, -1 for inactive

Answered cases to consult:
1. Clc1nc(Cl)c2ncn(C/C=C\Cn3cnc4c(Cl)nc(Cl)nc43)c2n1: -1
2. OCCNc1nc(NCCO)nc(Nc2ccc(C3=NN(c4cc(Cl)cc(Cl)c4)C(c4ccc(Cl)cc4)C3)cc2)n1 (stereo not given): -1
3. Cn1c2ccccc2c2c(=O)n(CCCC(=O)NCC(=O)OC(=NC3CCCCC3)NC3CCCCC3)c3c(-c4ccccc4)nnn3c21: -1
4. C[C@]12CC[C@H]3[C@@H](CC=C4C[C@@H](O)CC[C@@]43C)[C@@H]1C/C(=C\c1cccc(OCCN3CCOCC3)c1)[C@@H]2O: -1
5. CN(C)c1cccc2[nH]c(-c3[nH]ncc3Nc3ccnc(N)n3)nc12: 1

Dear colleague, could you share the recorded outcome for O=C(Nc1ccccc1Cl)c1cnc2ccc(C3CCNCC3)cn12 when you have a moment?
-1

---

Test system: U251 CNS
Experiment: NCI tumour cell line growth inhibition, 48 h
PROPERTY LABEL: TGI

1) C[N+](C)(C)CC1Cc2ccccc2C1=O (stereo unspecified): > 10 µM

Next up:
Quick one: TGI of O=C(CC(=O)Nc1ccc(Cl)cc1)NNCC(=O)Nc1nc(-c2ccccc2)cs1 ?
> 100 µM

---

System: MDA-MB-435
The reply should name one outcome from active, inactive

1) COc1ccc(-c2ccc(/C=N/n3cn[nH]c3=S)o2)c([N+](=O)[O-])c1: inactive
2) Nc1nc(-n2cccn2)nc(-n2cccn2)c1Br: inactive
3) O=C(Nc1ccccc1Cl)c1cnc2ccc(C3CCNCC3)cn12: inactive
4) COc1cc(/C=C2\CCCC3=C2NC(N)=NC3c2cc(OC)c(OC)c(OC)c2)cc(OC)c1OC (stereo not drawn): active
5) O=c1cc/c(=N\Nc2ccccc2)c(=O)/c1=N/Nc1ccccc1: inactive

Dear colleague, could you share the recorded outcome for Cc1c(C(=O)/C=C/c2ccc(O)cc2)nnn1-c1ccnc2c(C(F)(F)F)cccc12 when you have a moment?
inactive

Dear colleague, could you share the recorded outcome for CCN(CC)c1ccc(/C=N/NC(=O)c2ccc(Nc3ccnc(C(F)(F)F)c3)cc2)c(O)c1 when you have a moment?
inactive

Dear colleague, could you share the recorded outcome for COc1cc2c(/C=C3/C(=O)Nc4ccccc43)c(Cl)n(Cc3ccccc3)c2cc1C when you have a moment?
inactive

Dear colleague, could you share the recorded outcome for CCN(CC)CCC(=O)Nc1cccc2c1C(=O)c1c(c(O)c3ccccc3c1O)C2=O when you have a moment?
inactive

---

Overview of reported TGI across a group of compounds:
Tested on: SK-MEL-5 melanoma
Assay: NCI tumour cell line growth inhibition, 48 h

1) COc1ccc2oc(=N)c(C(N)=S)cc2c1: 57.8 µM
2) COc1ccc(/C=C/C(=O)NCC(NC(=O)/C=C/c2ccc(OC)c(OC)c2)C(=O)O)cc1OC (configuration not stated): > 100 µM
3) CC(=NNC(=S)Nc1ccccc1C)c1cccc(C(C)=NNC(=S)Nc2ccccc2C)n1: > 100 µM
4) C[N+](C)(C)CC1Cc2ccccc2C1=O (configuration not stated): > 10 µM
5) CCCCCCn1c(-c2ccc(C(=O)O/N=C(\N)c3ccc(OC)cc3)cc2)nc(-c2ccccc2)c1-c1ccccc1: 3.71 µM

Quick one: TGI of COC(=O)/C=C/c1cc(OC)c2c(c1)C(C(=O)OC)C(c1ccc(OC)c(OC)c1)O2 (configuration not stated) ?
> 100 µM

Quick one: TGI of O=S(=O)(CC1=NC2C=CC=CC2N=C1)NCc1ccccc1 (configuration not stated) ?
> 100 µM

Quick one: TGI of CC[C@@]1(O)C(=O)OCc2c1c(Cl)c1n(c2=O)Cc2cc3ccccc3nc2-1 ?
5.42 µM

Quick one: TGI of O=C(O)CC(Cc1ccc2c(c1)OCO2)C(=O)O (configuration not stated) ?
> 100 µM

Quick one: TGI of CC1CCCc2c(-c3ccc(Cl)cc3)nc(N)c(C#N)c21 (configuration not stated) ?
38.5 µM

---

Overview of reported TGI across a group of compounds:
Tested on: KM20L2 colon
Assay: NCI tumour cell line growth inhibition, 48 h

Illustrative cases are given below, each with its answer.
1) O=C1/C(=C/c2cccc([N+](=O)[O-])c2)COc2ccccc21: > 100 µM
2) O=S(=O)(O)C(F)(F)C(F)(F)C(F)(F)C(F)(F)F: > 100 µM
3) CC(=O)Nc1ccc(-c2nnc(SCC(=O)Nc3ccccc3Cl)o2)cc1: > 100 µM
4) O=C1CCC(c2nc3ccccc3o2)C(=O)N1 (stereo unspecified): > 100 µM
5) CN1C(c2ccccc2)CC(=Nc2ccccc2)CC1c1ccccc1 (stereo unspecified): 26.5 µM

Quick one: TGI of COC(=O)c1nc(-c2ccc(Cl)c(Cl)c2)nc2ccccc12 ?
> 100 µM

---

Overview of reported TGI across a group of molecules:
Test system: OVCAR-8 ovarian
Assay: NCI tumour cell line growth inhibition, 48 h

Illustrative cases are given below, each with its answer.
1. Oc1ccccc1C=Nc1ccc(Oc2ccc(Cl)cc2)c(Cl)c1: 57.9 µM
2. COc1cc(C)cc2c1OC(c1ccccc1)CC2=O (configuration not stated): > 100 µM
3. C/C(=N\NC(N)=S)c1ccc2c(c1)OCO2: > 100 µM
4. COc1ccc2c(OC)c3ccoc3nc2c1O: > 100 µM

Quick one: TGI of O=c1c2cc(I)ccc2nc(-c2cccs2)n1Nc1ccccc1 ?
> 100 µM

Quick one: TGI of COc1ccc(/C=C/C(=O)NCC(NC(=O)/C=C/c2ccc(OC)c(OC)c2)C(=O)O)cc1OC (configuration not stated) ?
> 100 µM

Quick one: TGI of CC1C2CC(C(C3C(=O)C4CC3C(C)(C)C4C)C2=O)C1(C)C (configuration not stated) ?
> 100 µM

Quick one: TGI of CC(=O)NNC=N/C(C#N)=C(\N)C#N ?
> 100 µM

Quick one: TGI of C1CSCC2(COC2)CS1 ?
> 100 µM

Quick one: TGI of CCCCCCCCCCCCCCCC(=O)NC1CCc2cc(O)c(O)c(O)c2-c2ccc(SC)c(=O)cc21 (configuration not stated) ?
28.8 µM

Quick one: TGI of Oc1cn(-c2ccc(Cl)cc2)nc1-c1nnc(Nc2ccccc2)o1 ?
43.6 µM

Quick one: TGI of CC(=O)Nc1c(C)cc(OCC(=O)O)cc1C ?
> 100 µM

---

Test system: PC-3 prostate
Experiment: NCI tumour cell line growth inhibition, 48 h
PROPERTY LABEL: TGI

Illustrative cases are given below, each with its answer.
1) CC(=O)Nc1c(C)cc(OCC(=O)O)cc1C: > 100 µM
2) Cc1sc2ncnc(NCCc3ccccc3)c2c1C: 40.3 µM
3) COc1ncnc2c(NC3OC(CO)C(O)C3O)ncnc12 (stereo unspecified): 12.6 µM
4) COc1ccc(Cl)cc1N1C(=O)C(Cl)=C(Nc2cccc(O)c2)C1=O: 38.6 µM
5) CC1=NC(=Cc2ccc(Cl)cc2)C(=O)N1n1c(-c2ccccc2)nc2ccccc2c1=O: > 100 µM

Quick one: TGI of COc1cc(C2c3cccc4cccc(c34)C3CCC(=O)N32)cc(O)c1O (stereo unspecified) ?
> 50 µM

Quick one: TGI of O=C(O)CC(Cc1ccc2c(c1)OCO2)C(=O)O (stereo unspecified) ?
> 100 µM

Quick one: TGI of CCCCCCCCCC(=O)OCC1(CO)C/C(=C/CC(C(C)C)C(C)C)C(=O)O1 (stereo unspecified) ?
> 100 µM

Quick one: TGI of CC[C@@]1(O)C(=O)OCc2c1c(Cl)c1n(c2=O)Cc2cc3ccccc3nc2-1 ?
> 100 µM

Quick one: TGI of CCOC(=O)CCc1c(C(=O)OCC)[nH]c(/C=C2/NC(=O)C(C)=C2CC)c1C ?
> 100 µM

Quick one: TGI of COc1cc2c(cc1OCCCCCOc1cc(-c3ccc(F)cc3)nc(C)n1)N=C[C@@H]1CCCN1C2=O ?
> 60.5 µM
